assay: Particle size, PDI and Zeta potential of lipid compound nanoparticles (DLS); format: physicochemical; settings: LNP with pDNA-GFP-Luc, lipid compound:Cholesterol:DOPE:DSPE-PEG=40:48:10:2, N/P 24:1, pH=5.3
In this section, each of the compounds is paired with its reported Zeta potential.
Provide the reading as a plain figure in mV.

// known answers, use as guide
Smiles repr	Data value
CCCCCCCCC(CCCCCCCC)OC(=O)NCCCCOC(=O)CCN(CCC(=O)OCCCCNC(=O)OC(CCCCCCCC)CCCCCCCC)CCN(C)C	23.5
CCCCCCCCC(CCCCCCCC)OC(=O)NCCOC(=O)CCN(CCC(=O)OCCNC(=O)OC(CCCCCCCC)CCCCCCCC)CCN(C)C	20.7

**Q:** Consider the compound shown here: `CCCCCCCCC(CCCCCCCC)OC(=O)NCCOC(=O)CCN(CCC(=O)OCCNC(=O)OC(CCCCCCCC)CCCCCCCC)CCN1CCCC1` What is its recorded Zeta potential?
**A:** 13.0

**Q:** Same lookup for `CCCCCCCCC(CCCCCCCC)OC(=O)NCCCCOC(=O)CCN(CCC(=O)OCCCCNC(=O)OC(CCCCCCCC)CCCCCCCC)CCN1CCCC1` , please.
**A:** 20.2
